Numbers sourced from BigSolDB 2.1.

Settings: in acetonitrile, 298.15 K
METRIC_NAME: solubility (mole fraction)
Write no unit; give the number alone.

// recorded solubility (mole fraction) for C=C1CCN([C@H](C)[C@](O)(Cn2cncn2)c2ccc(F)cc2F)CC1 : 0.136

====

Settings: in PEG-400, 293.15 K
METRIC_NAME: solubility (mole fraction)
Write no unit; give the number alone.

// recorded solubility (mole fraction) for C=C1CCN([C@H](C)[C@](O)(Cn2cncn2)c2ccc(F)cc2F)CC1 : 0.182

====

Details: in ethyl acetate, 293.15 K
METRIC_NAME: solubility (mole fraction)
Write no unit; give the number alone.

// recorded solubility (mole fraction) for C=C1CCN([C@H](C)[C@](O)(Cn2cncn2)c2ccc(F)cc2F)CC1 : 0.251
